# Target Of Assay: human LILRB4 (human, UniProt Q8NHJ6 22-448)
# Assay Details: cell-based or functional assay
Endpoint: EC50 (nM), ADCC on THP-1 cells
Answer in nM, number only, no unit symbol.

Query IO-202 (antibody, V domains shown) VH: EVQLLESGGGLVQPGGSLRLSCAASGIDFSNHYYMYWVRQAPGKGLEWIGSIFSGDSASTYYADSAKGRFTISRDNSKNTLYLQMNSLRAEDTAVYYCARGMSTNDWASDLWGQGTLVTVSS VL: DIQMTQSPSSLSASVGDRVTITCQASESINSIYLAWYQQKPGKAPKLLIYRASTLASGVPSRFSGSGSGTDFTLTISSLQPEDFATYYCQQSYDWGDVENTFGGGTKVEIK yields EC50 (nM), ADCC on THP-1 cells of 248
